- ASSAY_EXPLANATION: in vitro
- PROTOCOL_CONDITIONS: African green monkey, TC50, Table 3, Example 8; single conc. (0.3 μM molnupiravir alone)
MEASURE: CC50

The compound listed as CC(C)C(=O)OC[C@H]1O[C@@H](n2ccc(=NO)[nH]c2=O)[C@H](O)[C@@H]1O has a reported CC50 of > 0.3 µM

====

- ASSAY_EXPLANATION: in vitro
- PROTOCOL_CONDITIONS: African green monkey, TC50, Table 3, Example 8; day 3
MEASURE: CC50

Sample CO[C@H]1C[C@@H](C)C/C(C)=C/[C@@H](CC(C)=O)C(=O)C[C@H](O)[C@@H](C)C(/C(C)=C/[C@@H]2CC[C@@H](O)[C@H](OC)C2)OC(=O)C2CCCCC2C(=O)C(=O)[C@]2(O)O[C@H]1[C@@H](OC)C[C@H]2C (stereo partly shown) [FK1706] ; CC50 observed: > 90 µM
